All figures here come from the supplement of paper PMC11908140.

B1: library; numbered along this chain (parent)
chain: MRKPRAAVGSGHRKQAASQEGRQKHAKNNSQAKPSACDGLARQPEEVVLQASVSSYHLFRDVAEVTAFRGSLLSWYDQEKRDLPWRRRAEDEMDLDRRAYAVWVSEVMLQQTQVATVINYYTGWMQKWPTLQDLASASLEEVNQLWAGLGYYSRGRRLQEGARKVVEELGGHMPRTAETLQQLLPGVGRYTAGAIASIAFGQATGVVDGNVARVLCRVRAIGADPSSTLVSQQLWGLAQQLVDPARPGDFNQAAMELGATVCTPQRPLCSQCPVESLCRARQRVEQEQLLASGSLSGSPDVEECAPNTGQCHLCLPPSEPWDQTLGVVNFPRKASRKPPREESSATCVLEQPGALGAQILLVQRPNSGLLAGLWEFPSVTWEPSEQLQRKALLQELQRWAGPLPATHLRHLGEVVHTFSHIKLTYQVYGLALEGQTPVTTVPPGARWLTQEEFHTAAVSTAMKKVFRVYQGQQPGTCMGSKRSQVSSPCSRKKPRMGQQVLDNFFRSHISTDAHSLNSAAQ

Variants of: B1
RUN DESCRIPTION: 8OG:A repair function score (normalized; synonymous = 0, nonsense = -1) (normalized log-likelihood score); higher = more repair activity (WT-like);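 also: cells sorted at 72 h after reporter transfection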
REPORTED CONDITIONS: with 8OG:A DNA repair reporter (GFP) in HEK-293 MUTYH KO cells
Classify on 8OG:A repair function score using low class = under -0.3, middle class = from -0.3 up to -0.02, high class = -0.02 and over

### Prompt Would you mind sorting M255Q into the appropriate category?
### Response low class

### Prompt Into which category would you place E413W ?
### Response low class

### Prompt Class label required: A199R
### Response low class

### Prompt Lab log: E350W — assign 8OG:A repair function score category
### Response high class

### Prompt Bin? M462H
### Response middle class

### Prompt Bin? P437L
### Response middle class

### Prompt Determine which band this variant sits in: A147S
### Response high class

### Prompt Class (by measured 8OG:A repair function score) for A177F
### Response middle class

### Prompt Hi, small favor: classify L361V by its 8OG:A repair function score when you get a moment.
### Response middle class

### Prompt Just checking, what class would you give P317Q here?
### Response middle class

### Prompt Given S270I , name the class its 8OG:A repair function score places it in.
### Response middle class

### Prompt Record A461Q — which class?
### Response low class

### Prompt Category lookup for the variant V230G
### Response middle class

### Prompt Quick check: band for H416K
### Response low class

### Prompt Any idea which band V207E is in?
### Response low class

### Prompt Any idea which band A203P is in?
### Response high class

### Prompt Looking at R340H , which class would you pick?
### Response middle class

### Prompt Please report the category associated with L277M , nothing else.
### Response high class

### Prompt Class? Entry: L73R
### Response low class

### Prompt Input A391Y ; output its category
### Response high class

### Prompt Class label required: V441K
### Response middle class

### Prompt Lab log: P244Q — assign 8OG:A repair function score category
### Response low class

### Prompt Record V117Y — which class?
### Response low class

### Prompt Please report the category associated with G475S , nothing else.
### Response high class

### Prompt Category of I198H , please.
### Response low class

### Prompt Exam item: assign Y120K to the correct category.
### Response high class

### Prompt Kindly identify the class of H508W .
### Response high class

### Prompt For the record L109K , report the class its 8OG:A repair function score corresponds to.
### Response low class

### Prompt State the class of the variant shown: F453K
### Response low class

### Prompt State the band of Q435S
### Response high class

### Prompt // bin(item) where item = E342I
### Response high class

### Prompt Band assignment needed for L423I please.
### Response middle class

### Prompt Bin this entry: D133H
### Response middle class

### Prompt Hello team, could you let me know which band the following variant falls into: Q232G
### Response high class

### Prompt Which 8OG:A repair function score category applies to H420E here?
### Response low class

### Prompt Any idea which band P273Y is in?
### Response low class

### Prompt Pick a category. Item: A51Q
### Response high class

### Prompt Which class does D322K fall in?
### Response high class

### Prompt # classify by 8OG:A repair function score band: G479K
### Response high class

### Prompt Bin? L145W
### Response middle class

### Prompt State the band of A345S
### Response middle class

### Prompt # bin label for P34S
### Response high class

### Prompt Form: Item = F59G ; Class = ?
### Response low class

### Prompt Category of Q521G , please.
### Response high class

### Prompt Would you mind sorting L95C into the appropriate category?
### Response high class

### Prompt Assign a category based on measured 8OG:A repair function score for V500E and give only the class name.
### Response high class

### Prompt State the band of S507A
### Response middle class

### Prompt Could you tell me which band L396Q belongs to?
### Response low class

### Prompt Sort into band: P365K
### Response high class

### Prompt Kindly state the category for this variant: L361H
### Response low class

### Prompt Which of the defined bands does the recorded 8OG:A repair function score of L229Q sit within?
### Response middle class

### Prompt Bin? L268K
### Response high class

### Prompt Which category fits this record: A405T
### Response middle class

### Prompt Please report the category associated with D300S , nothing else.
### Response middle class

### Prompt State the class of the variant shown: H312L
### Response high class

### Prompt Sort into band: S459D
### Response low class

### Prompt Which class does R389L fall in?
### Response middle class

### Prompt Note: place this variant into its band. Item: S197G
### Response low class

### Prompt Please indicate the class for Q388W based on its 8OG:A repair function score.
### Response middle class

### Prompt Form field 'band' for R467T
### Response middle class

### Prompt Tag the class for A280E
### Response low class

### Prompt Dear colleague, I would appreciate it if you could identify the bin for N329D and reply at your convenience.
### Response middle class
